Target: MERTK (UniProt Q12866)
Sequence (Q12866 whole entry, looked up): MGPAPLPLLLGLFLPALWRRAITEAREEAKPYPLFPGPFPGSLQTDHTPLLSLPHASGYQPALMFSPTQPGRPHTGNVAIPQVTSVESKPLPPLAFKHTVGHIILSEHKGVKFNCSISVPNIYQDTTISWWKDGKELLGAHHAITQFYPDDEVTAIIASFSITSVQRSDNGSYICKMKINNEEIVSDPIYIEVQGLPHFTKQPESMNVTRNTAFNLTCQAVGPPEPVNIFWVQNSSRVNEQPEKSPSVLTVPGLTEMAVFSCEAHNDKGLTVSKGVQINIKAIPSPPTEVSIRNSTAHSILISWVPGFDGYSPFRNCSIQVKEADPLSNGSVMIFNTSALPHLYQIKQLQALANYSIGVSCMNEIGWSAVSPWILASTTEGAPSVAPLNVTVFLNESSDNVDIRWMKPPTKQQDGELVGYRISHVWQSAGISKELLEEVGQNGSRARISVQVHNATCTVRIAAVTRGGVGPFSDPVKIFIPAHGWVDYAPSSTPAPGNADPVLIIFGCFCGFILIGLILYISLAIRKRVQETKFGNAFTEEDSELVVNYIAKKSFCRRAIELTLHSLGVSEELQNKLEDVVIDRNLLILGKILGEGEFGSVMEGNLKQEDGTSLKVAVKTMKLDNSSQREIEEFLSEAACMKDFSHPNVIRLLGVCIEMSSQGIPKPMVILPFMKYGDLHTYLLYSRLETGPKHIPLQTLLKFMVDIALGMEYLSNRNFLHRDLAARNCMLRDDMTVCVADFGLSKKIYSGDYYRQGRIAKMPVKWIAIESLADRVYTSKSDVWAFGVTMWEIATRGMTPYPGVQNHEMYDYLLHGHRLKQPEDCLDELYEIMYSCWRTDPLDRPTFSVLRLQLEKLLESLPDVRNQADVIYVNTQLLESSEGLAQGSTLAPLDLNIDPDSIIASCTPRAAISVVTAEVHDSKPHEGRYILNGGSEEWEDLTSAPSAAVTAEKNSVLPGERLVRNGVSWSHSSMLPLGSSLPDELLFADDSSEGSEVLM
Assay: phosphorylation enrichment, bacterial display (enrichment ratio); higher = better substrate or ligand; peptides without Tyr show the background;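 further: 11-residue human phosphosite peptides and single-mutation variants displayed on the E. coli surface, counted by deep sequencing, each peptide's frequency after selection divided by its frequency in the unselected input library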;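 further: frequency after pTyr selection over input frequency; kinase dosed for 20-30% of maximal phosphorylation in three min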
reportedMetric: phosphorylation enrichment
Answer with a number only.

Recorded phosphorylation enrichment, per entry:
// query I'd like to know its phosphorylation enrichment. The sequence in question is RLGDLYKEEMR [VIM_Y150_E151K]
// result 0.362

// query Subsequent entry: VNYQPYRKHKY [TEX37_Y28_D24N]
// result 0.351

// query Subsequent entry: FTNRNYDLDFD [MYC_Y12_YF]
// result 0.494

// query Subsequent entry: VKKKLYEEIDQ [CYP17A1_Y329]
// result 0.347

// query Subsequent entry: STEEQYRICQV [EFHC1_Y115_R118C]
// result 0.492

Next:
// query I'd like to know its phosphorylation enrichment. The sequence in question is LKMLVYMDMSK [LRRC7_Y234_L235M]
// result 0.689

Data provenance: the supplement of paper PMC10065799
